- targetOrTestSystem: Receptor-interacting serine/threonine-protein kinase 2 (Homo sapiens) (UniProt O43353)
- Sequence (O43353 whole entry, looked up): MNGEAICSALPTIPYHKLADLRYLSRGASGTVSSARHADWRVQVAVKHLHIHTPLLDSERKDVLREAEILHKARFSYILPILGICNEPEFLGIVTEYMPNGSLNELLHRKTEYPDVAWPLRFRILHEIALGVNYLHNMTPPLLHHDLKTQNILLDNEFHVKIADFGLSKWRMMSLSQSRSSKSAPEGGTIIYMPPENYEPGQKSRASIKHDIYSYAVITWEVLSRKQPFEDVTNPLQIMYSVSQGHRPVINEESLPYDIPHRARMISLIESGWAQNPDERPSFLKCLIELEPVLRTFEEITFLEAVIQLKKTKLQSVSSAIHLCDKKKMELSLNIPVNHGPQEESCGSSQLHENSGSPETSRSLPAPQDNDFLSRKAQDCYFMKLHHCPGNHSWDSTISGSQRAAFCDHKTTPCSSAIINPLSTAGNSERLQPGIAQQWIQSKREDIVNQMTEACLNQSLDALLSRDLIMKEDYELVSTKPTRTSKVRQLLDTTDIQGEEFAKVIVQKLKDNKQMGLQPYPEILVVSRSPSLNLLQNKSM
- experimentNotes: inhibitors of RIPK2 association with NOD2 – fluorescence, CHO cells, BLA complementation, primary screen (AID 624267);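 note: 0% = vehicle only and 100% = reference blocker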
- reportedConditions: CHO BLA complementation NOD2-RIPK2, CCF4 ratio; at 4.98 µM; active compounds read high
Hit rate of the full screen: of about 360,000 compounds, about 1,400 (0.39%) were called active. This is one part of a sample in which actives are shown more often than they occur.
Here, each record is paired with measured inhibition data.

molecule	unitAbbrev	inhibition
c1ccc(CCNC2CCCCCC2)cc1	%	-21.6
CC(=O)OC1C2(CC3N4C(=O)C5(CO)SSC4(CC31O)C(=O)N5C)OC(C)C(C)(C)C2=O (centres undefined)	%	63.9
CC(C(=O)Nc1ccc(Cl)cc1Cl)N1CC=C(c2ccccc2)CC1 (centres undefined)	%	-16.5
CC(=NCc1ccc2c(c1)OCO2)c1c(O)[nH]c(=O)[nH]c1=O	%	4.27
CCN1CCN(Cc2cc(OC)c3c(c2)OCO3)CC1	%	-5.64
COC(=O)C1=C(c2ccc(Cl)c(C(F)(F)F)c2)C[C@@H]2CC[C@H]1N2C(=O)NC1CC1	%	-1.54
Cc1ccc2c(c1)C1CN(C)CCC1N2C(=O)Cn1nnc(-c2ccccc2F)n1 (centres undefined)	%	-3.9
CNCC(O)c1cc(F)c(OCc2ccccc2)c(OCc2ccccc2)c1F (centres undefined)	%	-9.31
CCOC(=O)[C@]12Cc3cc(OC)ccc3[C@H]1N(C(C)C)C(=O)c1ccccc12	%	-1.01
